- System: MS2 coat protein
- test-method-notes: apparent KD of MS2 coat protein; designed switch direction (-1 OFF switch, 1 ON switch): 1; higher = weaker reporter binding
- condition-context: input ligand: microRNA oligo, concentration not stated
Where apparent KD of MS2 coat protein equals or exceeds 40 nM, the correct label is yes (1); where it does not, the label is no (0).

See these solved cases before continuing.
{"columns": ["macromolecule-sequence", "discrete-label"],
 "data": [
  ["ACUCAGUACAAUUUAGAUCUACAUGAGGAUCACCCAUGUACUGAGGAUAUCAGCUCGAUUAGAGCUGAGAAGGCAGUUGUACUA [SSNG3/10-A2] (Eterna round: R96, puzzle: Same State NG 3)", "yes (1)"],
  ["GGCGAACAGGCUAACAUGAGGAUCACCCAUGUGGACUUCGUGUAGGAUAUCGGGAAGGAGGAAACCGAGAAGGGCAAAGAAGCC [AK SSNG3-V2-49] (Eterna round: R96, puzzle: Same State NG 3)", "yes (1)"],
  ["GAGCUCCAACGCGGAGCUCCACAUGAGGAUCACCCAUGUACACAGGAUAUCACUCCCUUUGGGAGUGAGAAGGGUGGUUCGGAA [Bebeave] (Eterna round: R96, puzzle: Same State NG 3)", "yes (1)"]
]}

Query: Hello, I need to know if GAGUGGCAGUUAGGAUAUAUAGUGAUAAUUACAAUAGAAGGAACAGACAUGAGGAUCACCCAUGUAGGACUAAUCCAGAGAGAG [Parity 38 - Jieux - Same State NG 1] (Eterna round: R96, puzzle: Same State NG 1) has measured apparent KD of MS2 coat protein not below 40 nM. Thanks!
Result: no (0)

Query: Hello, I need to know if GUGGUCAGACAUGAGGAUCACCCAUGUGGAAUAAAUAACACACAGGAUAUCAAAUAUAAAAUAUAUGAGAAGGGUGGAUUGGUG (Eterna round: R96, puzzle: Same State NG 3) has measured apparent KD of MS2 coat protein not below 40 nM. Thanks!
Result: yes (1)

Query: Hello, I need to know if GGAUGACGGACAGGAUAUUGGUGCUAAUGGUGUCAAGAAGGGUCUUCGAUAUAUACGACCAGUUACAUGAGGAUCACCCAUGUU [JR_SSNG1_Sub034] (Eterna round: R96, puzzle: Same State NG 1) has measured apparent KD of MS2 coat protein not below 40 nM. Thanks!
Result: no (0)

Query: Hello, I need to know if GUGCUCGUGUGAGGAUAUGCUUCCGUUUCGGCUGCAGAAGGUACUAUUAUACAUGAGGAUCACCCAUGUCGCUUUUCUCCGGUG [salish99_SSNG1_r04_915] (Eterna round: R96, puzzle: Same State NG 1) has measured apparent KD of MS2 coat protein not below 40 nM. Thanks!
Result: no (0)

Query: Hello, I need to know if AGAUGUUAAUUAGGAUAUGGACACAUGAGGAUCACCCAUGUAACGAAGAUACGAUGUGGUCAAGUCUAGAAGGGAUAGCUAACA [SameState NG2 #75] (Eterna round: R96, puzzle: Same State NG 2) has measured apparent KD of MS2 coat protein not below 40 nM. Thanks!
Result: no (0)

Query: Hello, I need to know if CUGAGCAAUCAAGGAUAUCACGUCGAUUAGACGUGAGAAGGUGAUCAUCACAUGAGGAUCACCCAUGUGUUACAUGGAGCUCAG [Brourd's SSNG1/1-A2 mod 4] (Eterna round: R96, puzzle: Same State NG 1) has measured apparent KD of MS2 coat protein not below 40 nM. Thanks!
Result: yes (1)
